- testedOn: CXCR3 (Homo sapiens)
- Construct: host or cells: CHO-K1 (cAMP Hunter CHOK1 CXCR3 Gi cell line)
- protocolText: CXCR3 cAMP agonist assay (cAMP Hunter CHOK1 CXCR3 Gi cell line, forskolin-stimulated, HitHunter cAMP detection)
- Assay type: cell-based
- testContext: cAMP Hunter CHOK1 CXCR3 Gi cells, 20 μM forskolin, 30 minutes; read-out: Activity (CXCR3 cAMP agonist assay compound EC50)
measuredParameter: EC50

# count of solved cases: 5
COC1CCN(C(=O)CCC(=O)N2Cc3ccccc3C[C@H]2C(=O)N[C@@H](CCN)C(=O)Nc2ccc(Cl)c(C)c2)C1 (stereo partly drawn) [Compound 12-64]; < 0.05 µM
Cc1cc(NC(=O)[C@H](CCN2CCC(F)(F)CC2)NC(=O)[C@@H]2Cc3ccccc3CN2C(=O)CCC(=O)c2ccccc2)ccc1Cl [Compound 17-4]; 0.05 to 0.25 µM
Cc1cc(NC(=O)[C@H](CCN)NC(=O)[C@@H]2Cc3ccccc3CN2C(=O)CCC(=O)N2CCC(C(C)(C)C)C2)ccc1Cl (stereo partly drawn) [Compound 12-75]; < 0.05 µM
COC1CCN(C(=O)CCC(=O)N2Cc3ccccc3C[C@H]2C(=O)N[C@@H](CCN)C(=O)Nc2ccc(Cl)c(C)c2)CC1 [Compound 12-42]; < 0.05 µM
NCC[C@H](NC(=O)[C@@H]1Cc2ccccc2CN1C(=O)CCC(=O)N1CCC(C(F)(F)F)C1)C(=O)Nc1ccc(Cl)c(Cl)c1F (stereo partly drawn) [Compound 15-47]; < 0.05 µM

Find the measured EC50: item Cc1c(Cl)ccc(NC(=O)C(CCN2CCC(O)CC2)NC(=O)[C@@H]2Cc3ccccc3CN2C(=O)CCC(=O)c2ccccc2)c1Cl (mixture of isomers) [Compound 25-1] , target or system CXCR3 (Homo sapiens).
0.05 to 0.25 µM

====

Catalogue of compounds with associated Cmax
- protocolText: Mouse pharmacokinetics after oral gavage, plasma drug concentration by LC-MS/MS (C57BL/6)
- Type: in vivo, C57bl/6 mice
- testContext: mouse, plasma, C57BL/6, 60 mg/kg, female mice
// units = nM; emit number, no label

# count of solved cases: 2
Cc1cc(NC(=O)[C@H](CCN)NC(=O)[C@@H]2Cc3ccccc3CN2C(=O)CCC(=O)N2CCN(C)C[C@H]2C)ccc1Cl; 370
CCc1cc(NC(=O)[C@H](CCN)NC(=O)[C@@H]2Cc3ccccc3CN2C(=O)CCC(=O)c2ccccc2)ccc1Cl; 3000

What value of Cmax has been recorded for this entry: "N#Cc1cc2c(cc1NC(=O)[C@H](CCN)NC(=O)[C@@H]1Cc3ccccc3CN1C(=O)CCC(=O)c1ccccc1)CCC2"
1500

====

- protocolText: Mouse pharmacokinetics after oral gavage, plasma drug concentration by LC-MS/MS (BALB/c)
- Type: in vivo
- testContext: 10 mg/kg, male mice
measuredParameter: apparent oral clearance (CL/F) (mL/min/kg)
// units = mL/min/kg; emit number, no label

Cc1cc(NC(=O)[C@H](CCNC(C)C)NC(=O)[C@@H]2Cc3ccccc3CN2C(=O)CCC(=O)c2ccccc2)ccc1Cl; 56

What value of apparent oral clearance (CL/F) has been recorded for this entry: "Cc1cc(NC(=O)[C@H](CCCCNC(C)C)NC(=O)[C@@H]2Cc3ccccc3CN2C(=O)CCC(=O)c2ccccc2)ccc1Cl"
158

And the next one, "Cc1cc(NC(=O)[C@H](CCN)NC(=O)[C@@H]2Cc3ccccc3CN2C(=O)CCC(=O)c2ccccc2)c(Cl)cc1Cl" ?
10

And the next one, "Cc1cc(NC(=O)[C@H](CCN)NC(=O)[C@@H]2Cc3ccccc3CN2C(=O)CCC(=O)c2ccccc2)c(C)cc1Cl" ?
59

And the next one, "Cc1c(NC(=O)[C@H](CCCCN)NC(=O)[C@@H]2Cc3ccccc3CN2C(=O)CCC(=O)c2ccccc2)ccc(Cl)c1Cl" ?
782

And the next one, "NCCCC[C@H](NC(=O)[C@@H]1Cc2ccccc2CN1C(=O)CCC(=O)c1ccccc1)C(=O)Nc1ccc(Cl)c(F)c1" ?
527

And the next one, "Cc1cc(NC(=O)[C@H](CCCN)NC(=O)[C@@H]2Cc3ccccc3CN2C(=O)CCC(=O)c2ccccc2)ccc1Cl" ?
4627

And the next one, "NCC[C@H](NC(=O)[C@@H]1Cc2ccccc2CN1C(=O)CCC(=O)c1ccccc1)C(=O)Nc1ccc(Cl)c(Cl)c1" ?
66

And the next one, "Cc1cc(Cl)c(Cl)cc1NC(=O)[C@H](CCN)NC(=O)[C@@H]1Cc2ccccc2CN1C(=O)CCC(=O)c1ccccc1" ?
65

====

- testedOn: CXCR3 (Homo sapiens, UniProt P49682)
- Construct: host or cells: CHO-K1 (cAMP Hunter CHOK1 CXCR3 Gi cell line)
- Sequence (P49682 1-368): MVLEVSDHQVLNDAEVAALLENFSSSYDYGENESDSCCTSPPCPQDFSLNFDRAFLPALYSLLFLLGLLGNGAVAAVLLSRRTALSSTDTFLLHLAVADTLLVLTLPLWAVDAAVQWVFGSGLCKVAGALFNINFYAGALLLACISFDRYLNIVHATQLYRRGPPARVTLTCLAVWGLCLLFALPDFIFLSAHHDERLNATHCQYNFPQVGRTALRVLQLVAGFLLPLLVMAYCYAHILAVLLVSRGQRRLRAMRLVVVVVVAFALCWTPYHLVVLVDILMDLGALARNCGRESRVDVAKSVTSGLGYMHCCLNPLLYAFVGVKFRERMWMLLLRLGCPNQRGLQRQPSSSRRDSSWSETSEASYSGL
- protocolText: CXCR3 cAMP agonist assay (cAMP Hunter CHOK1 CXCR3 Gi cell line, forskolin-stimulated, HitHunter cAMP detection)
- Type: cell-based
- testContext: cAMP Hunter CHOK1 CXCR3 Gi cells, 20 μM forskolin, 30 minutes; read-out: Activity (CXCR3 cAMP agonist assay compound EC50)
pEC50: −log10 of the molar value.
Catalogue of compounds with associated pEC50

# count of solved cases: 5
Cc1cccc(Cl)c1NC(=O)[C@H](CCN)NC(=O)[C@@H]1Cc2ccccc2CN1C(=O)CCC(=O)c1ccccc1; < 6.30
CC1(C)CCN(C(=O)CCC(=O)N2Cc3ccccc3C[C@H]2C(=O)N[C@@H](CCN)C(=O)Nc2ccc(Cl)c(Cl)c2F)CC1; > 7.30
NCC[C@H](NC(=O)[C@@H]1Cc2ccccc2CN1C(=O)CCC(=O)N1CCC2(CC1)CC(F)(F)C2)C(=O)Nc1ccc(Cl)c(Cl)c1F; 6.30 to 6.60
Cc1ccc(NC(=O)[C@H](CCCCN)NC(=O)[C@@H]2Cc3ccccc3CN2C(=O)CCC(=O)c2ccccc2)cc1Cl; > 7.30
Cc1cc(NC(=O)C(NC(=O)[C@@H]2Cc3ccccc3CN2C(=O)CCC(=O)c2ccccc2)C2CCN(C)CC2)ccc1Cl (mixture of isomers); 6.60 to 7.30

Find the measured pEC50: item "NCC[C@H](NC(=O)[C@@H]1Cc2ccccc2CN1C(=O)CCC(=O)c1ccccc1)C(=O)Nc1ccc2scnc2c1" , target or system CXCR3 (Homo sapiens, UniProt P49682).
6.30 to 6.60

====

- testedOn: CXCR3 (Homo sapiens)
- Construct: host or cells: CHO-K1 (cAMP Hunter CHOK1 CXCR3 Gi cell line)
- protocolText: CXCR3 cAMP agonist assay (cAMP Hunter CHOK1 CXCR3 Gi cell line, forskolin-stimulated, HitHunter cAMP detection)
- Format: cell-based
- testContext: cAMP Hunter CHOK1 CXCR3 Gi cells, 20 μM forskolin, 30 minutes; read-out: Activity (CXCR3 cAMP agonist assay compound EC50)
measuredParameter: EC50

# count of solved cases: 5
Cc1cc(NC(=O)[C@H](CCN)NC(=O)[C@@H]2Cc3ccccc3CN2C(=O)CCC(=O)N2CCCC23CCC3)ncc1Cl [Compound 12-156]; < 50 nM
Cc1cc(NC(=O)[C@H](CCNCC(F)(F)F)NC(=O)[C@@H]2Cc3ccccc3CN2C(=O)CCC(=O)c2ccccc2)ccc1Cl [Compound 8-6]; 50 to 250 nM
Cc1cc(NC(=O)[C@H](CCN)NC(=O)[C@@H]2Cc3ccccc3CN2C(=O)CCC(=O)N2CC[C@@H](C)C2)ccc1Cl [Compound 12-122]; < 50 nM
Cc1cc(NC(=O)[C@H](CCN)NC(=O)[C@@H]2Cc3ccccc3CN2C(=O)CCC(=O)N2CCN(C)CC2)ccc1Cl [Compound 10-3]; < 50 nM
Cc1c(Cl)ccc(NC(=O)[C@H](CCN)NC(=O)[C@@H]2Cc3ccccc3CN2C(=O)CCC(=O)c2ccccc2)c1C [Compound 2-26]; < 50 nM

What value of EC50 has been recorded for this entry: Cc1cc(NC(=O)[C@H](CCN)NC(=O)[C@@H]2Cc3ccccc3CN2C(=O)CCC(=O)N2CCN(C)C(C)(C)C2)ccc1Cl [Compound 12-131]
< 50 nM

And the next one, Cc1cc(NC(=O)[C@H](CCN)NC(=O)[C@@H]2Cc3ccccc3CN2C(=O)CCC(=O)N2CCCC(C(C)C)C2)ccc1Cl (stereo partly shown) [Compound 12-96] ?
< 50 nM

And the next one, CC[C@H]1CCCN1C(=O)CCC(=O)N1Cc2ccccc2C[C@H]1C(=O)N[C@@H](CCN)C(=O)Nc1ccc(Cl)c(C)c1 [Compound 12-111] ?
< 50 nM
